Source: the supplement of paper PMC7877785

Protocol: self-splicing fitness, log relative to wild type (ln ratio); higher = more splicing; Tetrahymena group I intron in knt gene, E. coli kanamycin selection, DiMSum; sequences stand for … in CUCUCU…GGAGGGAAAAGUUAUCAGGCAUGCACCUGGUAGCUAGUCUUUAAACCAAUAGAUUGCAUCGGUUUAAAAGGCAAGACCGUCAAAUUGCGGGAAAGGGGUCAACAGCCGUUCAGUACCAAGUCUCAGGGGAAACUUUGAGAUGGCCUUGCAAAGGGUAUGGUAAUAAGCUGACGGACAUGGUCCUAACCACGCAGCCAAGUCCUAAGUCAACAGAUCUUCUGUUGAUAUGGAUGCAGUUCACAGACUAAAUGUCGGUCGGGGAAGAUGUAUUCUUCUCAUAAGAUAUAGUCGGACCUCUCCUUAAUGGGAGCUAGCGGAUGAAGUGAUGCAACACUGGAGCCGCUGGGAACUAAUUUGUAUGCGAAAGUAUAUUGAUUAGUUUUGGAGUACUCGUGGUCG;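 also: selection with 25 µg/mL kanamycin versus none on LB agar overnight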
Particulars: 30 °C
# key: entry, value: self-splicing fitness (ln)
Form rule: numeric answer, no unit written next to it.

As a guide, the following entries are already answered.
>  <Construct sequence>
AGCAAGCAAUAUUACGCAUG

>  <self-splicing fitness (ln)>
-3.32

$$$$
>  <Construct sequence>
AUUUAGCAAUAUUACGCCUU

>  <self-splicing fitness (ln)>
-0.196

$$$$
>  <Construct sequence>
GGAAAGCAAUAUUACGACAG

>  <self-splicing fitness (ln)>
-2.98

$$$$
>  <Construct sequence>
UUACAGCAAUAUUACGUCCU

>  <self-splicing fitness (ln)>
-2.11

$$$$
>  <Construct sequence>
CGUCAGCAAUAUUACGCAGA

>  <self-splicing fitness (ln)>
-2.79

$$$$

Record CUAUAGCAAUAUUACGCGAA , field self-splicing fitness (ln): -3.27

self-splicing fitness (ln) reading for CCCAAGCAAUAUUACGAACU : -3.54

// self-splicing fitness (ln) value for CAUUAGCAAUAUUACGGCGC : -2.01

The sequence ACUGAGCAAUAUUACGAUCG showed self-splicing fitness (ln) equal to -1.65

====

Protocol: self-splicing fitness, log relative to wild type (ln ratio); higher = more splicing; Tetrahymena group I intron in knt gene, E. coli kanamycin selection, DiMSum; sequences stand for … in CUCUCU…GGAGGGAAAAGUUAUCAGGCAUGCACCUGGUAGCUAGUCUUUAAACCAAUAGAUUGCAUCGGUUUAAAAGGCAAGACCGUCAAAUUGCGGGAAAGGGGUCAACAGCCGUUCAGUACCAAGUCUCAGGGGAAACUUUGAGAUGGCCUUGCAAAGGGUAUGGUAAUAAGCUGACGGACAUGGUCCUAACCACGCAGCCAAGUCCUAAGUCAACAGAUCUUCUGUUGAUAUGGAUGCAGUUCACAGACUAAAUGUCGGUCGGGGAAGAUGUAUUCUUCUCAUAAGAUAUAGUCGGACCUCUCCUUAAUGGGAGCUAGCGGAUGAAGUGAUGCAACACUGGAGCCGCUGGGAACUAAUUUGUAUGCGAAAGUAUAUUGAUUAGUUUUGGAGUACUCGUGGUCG
Particulars: 37 °C
Assay readout: self-splicing fitness (ln)
Give the figure only, with no unit attached.

What the record says about AUUGAGCAAUAUUACGCUAG : self-splicing fitness (ln) is -2.2
